- Test system: HT-29 (colon adenoma cancer)
- Assay overview: WST-1 cytotoxicity, HT-29
- Assay type: cell-based, human
- Condition set: WST-1, 48 h; read-out: IC50 HT-29 48 h
Observation type: IC50 (µM)
Give bare numbers, in µM.

Before answering, review these 2 worked examples.
Asked: Recall the recorded IC50 for `Cc1ccc(C=NCCc2ccc(S(N)(=O)=O)cc2)cc1` with HT-29 (colon adenoma cancer) and state it.
Given back: 23.7

Asked: Form entry - test system: HT-29 (colon adenoma cancer); read-out: IC50; molecule: `NS(=O)(=O)c1ccc(CCN=Cc2cc(Br)ccc2O)cc1`
Given back: 43.8

Further cases:
Asked: Form entry - test system: HT-29 (colon adenoma cancer); read-out: IC50; molecule: O=c1[nH]cc(F)c(=O)[nH]1 [Compound 5-FU, reference compound]
Given back: 23.4
